- Target or system: human recombinant FKBP-12 (Homo sapiens, UniProt P62942)
- Sequence (P62942 whole entry): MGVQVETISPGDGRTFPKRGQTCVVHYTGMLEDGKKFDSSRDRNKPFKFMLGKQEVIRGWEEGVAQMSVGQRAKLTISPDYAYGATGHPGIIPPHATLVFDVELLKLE
- Protocol details: coupled colorimetric PPIase (rotamase) assay, IC50 against FKBP-12
- Study conditions: human recombinant FKBP-12, substrate succinyl-AFPF-pNA, 10° C., pH 8.0
pIC50: −log10 of the molar value.
Endpoint name: pIC50

[[record]]
compound = "O=S(=O)(c1nc2ccccc2[nH]1)N1CCCC[C@H]1c1noc(Cc2ccccc2)n1"
target_or_system = "human recombinant FKBP-12 (Homo sapiens, UniProt P62942)"
endpoint_name = "pIC50"
value_observed = 7.02


P: O=S(=O)(c1ccc(F)cc1)N1CCCC[C@H]1c1nnn(Cc2ccccc2)n1
Q: CNCc1ccc(OCc2nc(C3CCCCN3S(=O)(=O)c3nc4ccccc4[nH]3)no2)cc1 (stereo not drawn)
Which value of pIC50 is greater, the one for P or the one for Q ? Give the chosen item's label as your response. Q
(Q: 7.04, P: 5.78)

====

- Target or system: human recombinant FKBP-12 (Homo sapiens)
- Protocol details: coupled colorimetric PPIase (rotamase) assay, IC50 against FKBP-12
- Study conditions: human recombinant FKBP-12, substrate succinyl-AFPF-pNA, 10° C., pH 8.0
pIC50: −log10 of the molar value.
Endpoint name: pIC50

Recorded pIC50, per entry:
[[record]]
compound = "O=S(=O)(c1ccc(F)cc1)N1CCCC[C@H]1c1nnc(CCc2ccccc2)o1"
value_observed = 5.70

[[record]]
compound = "O=S(=O)(CC1CCCCC1)N1CCCC[C@H]1c1noc(COC2CCNCC2)n1"
value_observed = 6.47


P: O=S(=O)(c1nc2ccccc2[nH]1)N1CCCCC1c1noc(-c2ncccn2)n1 (stereo not shown)
Q: NCc1ccc(-c2nc([C@@H]3CCCCN3S(=O)(=O)CC3CCCCC3)no2)o1
Could you check which of P and Q has a smaller value for pIC50? Give the chosen item's label as your response. P
(P: 6.35, Q: 7.09)

====

- Target or system: human recombinant FKBP52 (Homo sapiens, UniProt Q02790)
- Sequence (Q02790 1-459): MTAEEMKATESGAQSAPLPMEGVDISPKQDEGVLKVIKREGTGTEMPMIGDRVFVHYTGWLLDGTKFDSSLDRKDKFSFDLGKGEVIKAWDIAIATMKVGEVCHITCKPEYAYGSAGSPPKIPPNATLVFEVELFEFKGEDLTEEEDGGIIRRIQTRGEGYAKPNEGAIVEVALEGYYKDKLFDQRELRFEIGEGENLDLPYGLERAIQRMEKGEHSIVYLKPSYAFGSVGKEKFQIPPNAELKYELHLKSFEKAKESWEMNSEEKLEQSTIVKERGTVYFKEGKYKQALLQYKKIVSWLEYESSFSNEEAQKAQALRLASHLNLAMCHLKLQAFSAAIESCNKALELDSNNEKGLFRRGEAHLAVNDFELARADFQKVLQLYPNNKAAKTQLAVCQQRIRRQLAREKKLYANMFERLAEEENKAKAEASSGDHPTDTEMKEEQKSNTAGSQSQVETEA
- Protocol details: coupled colorimetric PPIase assay, Ki,app against FKBP52
- Study conditions: human recombinant FKBP52, substrate succinyl-ALPF-pNA, printed in the IC50 (nm) FKBP-12 column, read-out: Ki FKBP-52
Endpoint name: pKi
pKi is defined as minus the log10 of a concentration measured in mol/L.

Recorded pKi (compound "NCc1ccc(OCc2nc([C@@H]3CCCCN3S(=O)(=O)c3nc4ccccc4[nH]3)no2)cc1" ): 6.16
